B1: HDV Ribozyme (parent)
chain: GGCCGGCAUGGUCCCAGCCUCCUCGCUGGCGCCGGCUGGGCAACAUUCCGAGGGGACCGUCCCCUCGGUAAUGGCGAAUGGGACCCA

variants of: B1; assay: self-cleavage, relative activity (ratio to wild type); higher = more cleavage; co-transcriptional
Binned self-cleavage; ranges: LOW (below 0.1), MID (0.1 to below 0.4), HIGH (0.4 or more)

C3U C63A: HIGH
A8U A16U: HIGH
G39C A78C: MID
G29U: LOW
G55A U69A: HIGH

Query: Just checking, what class would you give G1C G31U here?
Response: LOW

Query: Please indicate the class for C3U G11C based on its self-cleavage.
Response: MID

Query: Band of C61U C66G ?
Response: HIGH

Query: Hi, small favor: classify A71G U79C by its self-cleavage when you get a moment.
Response: MID

Query: State the class of the variant shown: G28C A51U
Response: MID

Query: Each variant maps to one class by self-cleavage. Which class for A8U C32A ?
Response: LOW

Query: Hi there! Could you help me figure out the category for U23C A78C please?
Response: MID

Just for reference, the RNAGym collection of RNA variant scans (doi:10.7554/elife.80360) is where these values come from.
